Attribute: IC50
# assayedTarget: HLA-B*44:02
# protocol: IEDB peptide-MHC binding, purified MHC/competitive/fluorescence; bounds were set here for any values at or beyond the usual limits of such assays
# testSettings: source organism: Plasmodium falciparum

// below: answered sequences
{"residueString": "NEKNDVKNN", "IC50": "≥ 100 µM"}
{"residueString": "YENKSLTHYL", "IC50": "≥ 112 µM"}
{"residueString": "EEKDDIKNG", "IC50": "≥ 100 µM"}
{"residueString": "KEIDNDKENI", "IC50": "≥ 100 µM"}
{"residueString": "KEKHLNNIF", "IC50": "≥ 100 µM"}
{"residueString": "NDNNFAECY", "IC50": "≥ 100 µM"}

Annotate the sequence FEWHTLSKEY with its measured IC50.
19.1 µM

For the sequence NENNENNFL , give its measured IC50 value.
≥ 100 µM

Hello, please tell me recorded IC50 for this one: GEEKRASHTT
10 µM

Read the entry SECDIGLIY and write its reported IC50.
≥ 100 µM

Identify measured IC50 corresponding to VENNFPCSLY
6.02 µM

Quote IC50 reported for NEYSLFITS please.
≥ 100 µM

Answer with the recorded IC50 for the sequence listed here: KEMKHIFNRI
39.2 µM

###

Reported log10 IC50 values for the following sequences.
# assayedTarget: HLA-A*24:02
# protocol: IEDB peptide-MHC binding, purified MHC/competitive/fluorescence; bounds were set here for any values at or beyond the usual limits of such assays
# testSettings: source organism: Plasmodium falciparum
Hello, just confirming the data are log10 of IC50 with units of nM.

{"residueString": "GYSTKAENKI", "assayedTarget": "HLA-A*24:02", "log10 IC50": 3.26}
{"residueString": "EYKDEYADI", "assayedTarget": "HLA-A*24:02", "log10 IC50": 3.32}
{"residueString": "AYLNKYVYTI", "assayedTarget": "HLA-A*24:02", "log10 IC50": 2.10}
{"residueString": "QYLKDGGFAF", "assayedTarget": "HLA-A*24:02", "log10 IC50": 1.62}
{"residueString": "IFFNNENSI", "assayedTarget": "HLA-A*24:02", "log10 IC50": 1.76}

State, for HLA-A*24:02, measured log10 IC50 of the sequence listed here: PFHKKFISFF
1.55

Report measured log10 IC50 on HLA-A*24:02; entry: SYNSIYHKS
4.76

###

# assayedTarget: HLA-A*02:01
# protocol: IEDB peptide-MHC binding, purified MHC/competitive/fluorescence; bounds were set here for any values at or beyond the usual limits of such assays
# testSettings: source organism: Plasmodium falciparum
# key: entry, value: pIC50
# reply with the number alone; pIC50 is -log10 of concentration in mol/L

A selection of reference data follows.
{"residueString": "VLNGNDNTI", "pIC50": 5.14}
{"residueString": "HLNNIFHHL", "pIC50": 6.65}
{"residueString": "CLINNSSYI", "pIC50": 5.42}

Hello, please tell me recorded pIC50 for this one: ILDMSNEYSL
5.16

For the sequence KVKDSWITL , give its reported pIC50.
5.40

Specify reported pIC50 for the sequence shown: YIYNQIIWKI
5.71

Quickly give me recorded pIC50 for YVGDNINNV
5.74

Quickly give me recorded pIC50 for SLFITSDHL
5.15

Please indicate pIC50 recorded for YLNTNVNDGL
5.55

Give recorded pIC50. KLPLESSTI
5.67

Tell me pIC50 reported for FIPSHNSFI
4.51

Please look at this sequence and report its pIC50: FLPTGAFKA
5.86

Quote pIC50 reported for FLQYHFKEL please.
4.84

Identify measured pIC50 corresponding to KLGVQYFFL
6.09

Give recorded pIC50. YMGNPWTEYM
4.67

State its pIC50 for this sequence: YIYIDTIKFI
4.27

Using known records, supply pIC50 for FVLENGVCI
5.38

###

# assayedTarget: HLA-A*02:01
# protocol: IEDB peptide-MHC binding, purified MHC/competitive/fluorescence; bounds were set here for any values at or beyond the usual limits of such assays
# testSettings: source organism: Plasmodium falciparum
// map IC50 onto a label; ranges low band: < 1000 nM; middle band: ≥ 1000 nM and < 10000 nM; high band: ≥ 10000 nM

{"residueString": "NLFSSIEIV", "classification": "middle band"}
{"residueString": "YIFFNNENSI", "classification": "middle band"}
{"residueString": "SMIKSAFLPT", "classification": "high band"}
{"residueString": "DMSNEYSLFI", "classification": "high band"}
{"residueString": "VLLLSAFEFT", "classification": "high band"}
{"residueString": "RQMLYNTFYS", "classification": "high band"}

# bin label for AVLATILMV
high band

Hey, which category is FQYNDDASI in, do you know?
low band

Bin this entry: YIHKLILSV
middle band

# bin lookup: classify VQYFFLRPYI by its IC50
high band

Which class does SLIKQNKYV fall in?
high band

Kindly identify the class of NIFHHLIYV .
middle band

Each sequence maps to one class by IC50. Which class for YLNKYVYTI ?
low band

###

# assayedTarget: HLA-A*03:01
# protocol: IEDB peptide-MHC binding, purified MHC/competitive/fluorescence; bounds were set here for any values at or beyond the usual limits of such assays
# testSettings: source organism: Plasmodium falciparum
valueType: log10 of IC50 (log10 of the value in µM)
// do not treat as linear: log10 of IC50, unit µM

{"residueString": "SAFLPTGAFK", "assayedTarget": "HLA-A*03:01", "measuredResult": -0.46}
{"residueString": "RLSHTDIHK", "assayedTarget": "HLA-A*03:01", "measuredResult": 0.24}
{"residueString": "SIYHKSSTY", "assayedTarget": "HLA-A*03:01", "measuredResult": 0.77}
{"residueString": "SILPDINKSK", "assayedTarget": "HLA-A*03:01", "measuredResult": 1.10}
{"residueString": "HIYVQKKVK", "assayedTarget": "HLA-A*03:01", "measuredResult": -0.05}

Okay, now this sequence:
Check the records and state log10 of IC50 for STCRFFVCK
0.77

###

Listing of entries alongside the reported pIC50.
# assayedTarget: HLA-B*07:02
# protocol: IEDB peptide-MHC binding, purified MHC/competitive/fluorescence; bounds were set here for any values at or beyond the usual limits of such assays
# testSettings: source organism: Plasmodium falciparum
pIC50: −log10 of the molar value.

The cases that follow already have their pIC50 on record.
{"residueString": "MIRIKKKLIL", "assayedTarget": "HLA-B*07:02", "measuredResult": "≤ 4.00"}
{"residueString": "KPEKYGNTTA", "assayedTarget": "HLA-B*07:02", "measuredResult": "≤ 3.08"}
{"residueString": "HPYDINNKND", "assayedTarget": "HLA-B*07:02", "measuredResult": "≤ 4.00"}
{"residueString": "FNRIEYHTKI", "assayedTarget": "HLA-B*07:02", "measuredResult": "≤ 4.00"}
{"residueString": "IKKKLILTII", "assayedTarget": "HLA-B*07:02", "measuredResult": 4.36}
{"residueString": "KRASHTTPV", "assayedTarget": "HLA-B*07:02", "measuredResult": "≤ 4.00"}
{"residueString": "IPHYTFLDYY", "assayedTarget": "HLA-B*07:02", "measuredResult": "≤ 4.00"}
{"residueString": "KVKDSWITL", "assayedTarget": "HLA-B*07:02", "measuredResult": 6.34}

Provide HLA-B*07:02 pIC50 reading for KPHECVCNKQ .
≤ 4.00

Under HLA-B*07:02: report pIC50 of TPGPLDNTSE .
≤ 4.00

Please respond with reported pIC50 (system HLA-B*07:02) for SPLNLQENEM .
4.65

Name the recorded pIC50 of KPECVCKENL , assay system HLA-B*07:02.
≤ 3.69

###

# assayedTarget: HLA-A*01:01
# protocol: IEDB peptide-MHC binding, purified MHC/competitive/fluorescence; bounds were set here for any values at or beyond the usual limits of such assays
# testSettings: source organism: Plasmodium falciparum
Reported pIC50 values are given for each entry in this list.
The value called pIC50 is obtained by taking minus log10 of the concentration in mol/L.

For orientation, consider the following solved cases.
{"residueString": "IPDNDKNSNY", "valueType": "pIC50", "measuredResult": 4.83}
{"residueString": "YIDTIKFIHK", "valueType": "pIC50", "measuredResult": 5.82}
{"residueString": "LNDEYIVSY", "valueType": "pIC50", "measuredResult": 4.55}
{"residueString": "NNEDYKNVDY", "valueType": "pIC50", "measuredResult": 5.10}
{"residueString": "NKNDDSYRY", "valueType": "pIC50", "measuredResult": 5.18}

Provide measured pIC50 value, entry: DVSTLNDEY
4.28

Find the measured pIC50 of STEEEKDDIK and report it.
5.17
